- System: TNFα release in THP-1 cells
- assay.explanation: LPS-induced TNFα release in THP-1 cells
- Assay type: cell-based, human
- condition: Homo sapiens
- Procedure: LPS-Induced TNFα Release in THP-1 Cells THP-1 cells, a human monocytic cell line, were stimulated with 3 μg/mL of LPS (from E. Coli; 0111:B4, Sigma) for 4 hr and the supernatant collected for determination of the TNFα concentration by sandwich ELISA (Duo-set, R&D systems). The inhibition of TNFα production was calculated at each concentration by comparison with vehicle control. The 50% inhibitory concentration (IC50) was determined from the resultant concentration-response curve.
pIC50: −log10 of the molar value.
Use 9 as the dividing line for pIC50, with the line itself on the 1 (yes) side and lower values as 0 (no).

COCC(=O)Nc1cc(Oc2ccc(NC(=O)Nc3cc(C(C)(C)C)nn3-c3ccc(C)cc3)cc2S(C)(=O)=O)ccn1 0 (no)
CNCC(=O)Nc1cc(Oc2ccc(NC(=O)Nc3cc(C(C)(C)C)nn3-c3ccc(CO)cc3)c(Cl)c2Cl)ccn1 1 (yes)

Query string: Check if pIC50 >= 9 (inclusive). Item: COCC(=O)Nc1cc(COc2ccc(NC(=O)Nc3cc(C(C)(C)C)nn3-c3ccc(C)cc3)c3cccnc23)ccn1
Result string: 0 (no)

Query string: Hi, just wondering whether CNC(=O)Nc1cc(Oc2ccc(NC(=O)Nc3cc(C(C)(C)C)nn3-c3ccc(CO)c(Cl)c3)c(Cl)c2Cl)ccn1 shows pIC50 of 9 or higher.
Result string: 0 (no)
